Compiled Ki measurements on 5-hydroxytryptamine receptor 2A (Homo sapiens, UniProt P28223) taken from the literature.
Ki less than 100 nM is fulfilled; Ki greater than or equal to 100 nM is not fulfilled.

# count of solved cases: 3
Inquiry: Decide: Ki of Cn1ncc2c1CC(CN1CCC(C(=O)c3ccc(F)cc3)CC1)CC2=O (stereo not given) strictly below 100 nM?
Reply text: fulfilled

Inquiry: Decide: Ki of COc1ccccc1N1CCN(CCCCOc2ccc3c(C)cc(=O)oc3c2C(C)=O)CC1 strictly below 100 nM?
Reply text: fulfilled

Inquiry: Decide: Ki of O=S(=O)(c1ccc(F)cc1)N1CC=C(CCc2ccc(F)cc2F)CC1 strictly below 100 nM?
Reply text: fulfilled

Query compound follows.
Inquiry: Decide: Ki of O=c1c(-c2ccc(F)cc2)c2n(c(=O)n1CCCCN1CCCC(c3c[nH]c4ccccc34)C1)CCCC2 (stereo not given) strictly below 100 nM?
Reply text: not fulfilled
